# Measurement target: EGFR (Homo sapiens, UniProt P00533)
# Sequence (P00533 25-1210): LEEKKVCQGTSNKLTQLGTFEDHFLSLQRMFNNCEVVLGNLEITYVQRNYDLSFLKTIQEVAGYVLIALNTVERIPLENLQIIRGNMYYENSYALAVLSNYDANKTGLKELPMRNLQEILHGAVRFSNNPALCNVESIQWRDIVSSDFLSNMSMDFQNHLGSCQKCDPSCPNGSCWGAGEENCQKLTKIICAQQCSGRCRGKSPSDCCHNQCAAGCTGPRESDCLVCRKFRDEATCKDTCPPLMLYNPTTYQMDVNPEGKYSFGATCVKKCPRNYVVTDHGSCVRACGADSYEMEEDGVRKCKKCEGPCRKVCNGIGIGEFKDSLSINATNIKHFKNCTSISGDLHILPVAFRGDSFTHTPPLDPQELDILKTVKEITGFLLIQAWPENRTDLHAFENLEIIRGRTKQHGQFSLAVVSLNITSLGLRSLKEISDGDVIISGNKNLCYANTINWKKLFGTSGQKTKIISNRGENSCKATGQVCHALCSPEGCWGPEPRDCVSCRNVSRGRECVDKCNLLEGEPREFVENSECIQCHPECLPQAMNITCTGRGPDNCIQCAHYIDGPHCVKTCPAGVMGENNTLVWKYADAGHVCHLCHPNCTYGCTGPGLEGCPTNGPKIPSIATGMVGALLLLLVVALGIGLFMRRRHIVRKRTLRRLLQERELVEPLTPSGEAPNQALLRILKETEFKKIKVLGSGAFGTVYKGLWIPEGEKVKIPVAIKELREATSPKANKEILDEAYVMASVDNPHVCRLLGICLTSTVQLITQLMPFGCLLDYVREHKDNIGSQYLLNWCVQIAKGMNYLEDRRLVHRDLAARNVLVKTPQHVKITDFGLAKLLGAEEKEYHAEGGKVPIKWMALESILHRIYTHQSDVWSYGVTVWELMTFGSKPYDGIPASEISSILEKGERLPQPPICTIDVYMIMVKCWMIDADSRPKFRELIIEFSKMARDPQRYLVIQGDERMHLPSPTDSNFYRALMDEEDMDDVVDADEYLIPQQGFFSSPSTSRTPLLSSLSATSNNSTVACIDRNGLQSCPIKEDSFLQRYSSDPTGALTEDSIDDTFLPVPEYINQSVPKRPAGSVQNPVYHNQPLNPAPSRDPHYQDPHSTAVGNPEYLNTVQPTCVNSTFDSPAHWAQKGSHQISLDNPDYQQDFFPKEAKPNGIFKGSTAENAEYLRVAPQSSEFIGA
# Test details: ADP-Glo kinase assay, EGFR
# Type: biochemical
# Parameters: purchased BPS Bioscience (assay run externally by the vendor)
# Experimental setup: Log[nM] 4.0; Set1
Known EGFR % Activity Set1 of a selection of compounds

[
  {
    "Smi": "Clc1ccc(Nc2ncnc3[nH]ccc23)cc1",
    "Measurement target": "EGFR (Homo sapiens, UniProt P00533)",
    "EGFR % Activity Set1": "2%"
  },
  {
    "Smi": "Clc1cccc(Nc2ncnc3[nH]ccc23)c1",
    "Measurement target": "EGFR (Homo sapiens, UniProt P00533)",
    "EGFR % Activity Set1": "1%"
  },
  {
    "Smi": "Cc1ccccc1Nc1ncnc2[nH]ccc12",
    "Measurement target": "EGFR (Homo sapiens, UniProt P00533)",
    "EGFR % Activity Set1": "12%"
  },
  {
    "Smi": "Fc1cc(Nc2ncnc3[nH]ccc23)ccc1Cl",
    "Measurement target": "EGFR (Homo sapiens, UniProt P00533)",
    "EGFR % Activity Set1": "0%"
  },
  {
    "Smi": "FC(F)(F)c1cccc(Nc2ncnc3[nH]ccc23)c1",
    "Measurement target": "EGFR (Homo sapiens, UniProt P00533)",
    "EGFR % Activity Set1": "0%"
  },
  {
    "Smi": "Clc1ccc(Nc2ncnc3[nH]ccc23)cc1Br",
    "Measurement target": "EGFR (Homo sapiens, UniProt P00533)",
    "EGFR % Activity Set1": "0%"
  }
]

###

# Measurement target: aurora A kinase (AURKA) (Homo sapiens, UniProt O14965)
# Construct: purchased BPS Bioscience (assay run externally by the vendor)
# Sequence (O14965 whole entry): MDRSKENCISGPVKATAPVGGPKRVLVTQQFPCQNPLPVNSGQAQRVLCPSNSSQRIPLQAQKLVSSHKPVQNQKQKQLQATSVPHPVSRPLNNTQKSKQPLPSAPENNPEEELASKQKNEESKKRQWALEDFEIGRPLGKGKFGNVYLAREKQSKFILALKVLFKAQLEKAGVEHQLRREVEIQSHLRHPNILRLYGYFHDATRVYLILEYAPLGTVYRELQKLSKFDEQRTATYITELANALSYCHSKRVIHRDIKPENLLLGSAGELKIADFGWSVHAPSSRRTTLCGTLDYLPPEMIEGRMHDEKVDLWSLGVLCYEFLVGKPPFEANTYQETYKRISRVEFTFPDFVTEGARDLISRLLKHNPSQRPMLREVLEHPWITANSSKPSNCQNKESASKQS
# Test details: ADP-Glo kinase assay, Aurora A
# Format: biochemical
# Experimental setup: Log[nM] 4.0; Set1
So basically, if Aurora A % Activity Set1 comes in under 20% it's YES, and if it's 20% or more it's NO.

[
  {
    "Compound": "Clc1ccc(Nc2ncnc3[nH]ccc23)cc1Br [Compound 7]",
    "Label value": "YES"
  },
  {
    "Compound": "COc1ccc(Nc2ncnc3[nH]ccc23)cc1 [Compound 6]",
    "Label value": "NO"
  },
  {
    "Compound": "Nc1nc(Nc2cccc(Br)c2)c2cc[nH]c2n1 [Compound 8]",
    "Label value": "NO"
  },
  {
    "Compound": "Fc1cc(Nc2ncnc3[nH]ccc23)ccc1Cl [Compound 3]",
    "Label value": "YES"
  },
  {
    "Compound": "Clc1ccc(Nc2ncnc3[nH]ccc23)cc1 [Compound 4]",
    "Label value": "NO"
  },
  {
    "Compound": "c1ccc(Nc2ncnc3[nH]ccc23)cc1 [Compound 1]",
    "Label value": "NO"
  }
]

###

# Measurement target: aurora A kinase (AURKA) (Homo sapiens, UniProt O14965)
# Construct: purchased BPS Bioscience (assay run externally by the vendor)
# Test details: ADP-Glo kinase assay, Aurora A
# Type: biochemical
# Experimental setup: Log[nM] 2.5; Set2

[
  {
    "Molecule": "Clc1ccc(Nc2ncnc3[nH]ccc23)cc1Br [Compound 7]",
    "Measurement target": "aurora A kinase (AURKA) (Homo sapiens, UniProt O14965)",
    "Aurora A % Activity Set2, %": 97
  },
  {
    "Molecule": "Clc1cccc(Nc2ncnc3[nH]ccc23)c1 [Compound 11]",
    "Measurement target": "aurora A kinase (AURKA) (Homo sapiens, UniProt O14965)",
    "Aurora A % Activity Set2, %": 98
  },
  {
    "Molecule": "Nc1nc(Nc2cccc(Br)c2)c2cc[nH]c2n1 [Compound 8]",
    "Measurement target": "aurora A kinase (AURKA) (Homo sapiens, UniProt O14965)",
    "Aurora A % Activity Set2, %": 101
  },
  {
    "Molecule": "Cc1ccccc1Nc1ncnc2[nH]ccc12 [Compound 15]",
    "Measurement target": "aurora A kinase (AURKA) (Homo sapiens, UniProt O14965)",
    "Aurora A % Activity Set2, %": 103
  },
  {
    "Molecule": "c1ccc(Oc2ccc(Nc3ncnc4[nH]ccc34)cc2)cc1 [Compound 17]",
    "Measurement target": "aurora A kinase (AURKA) (Homo sapiens, UniProt O14965)",
    "Aurora A % Activity Set2, %": 96
  },
  {
    "Molecule": "Clc1ccc(Nc2ncnc3[nH]ccc23)cc1 [Compound 4]",
    "Measurement target": "aurora A kinase (AURKA) (Homo sapiens, UniProt O14965)",
    "Aurora A % Activity Set2, %": 99
  }
]
